study.target: T1, full-length hRpn13 (human, UniProt Q16186 1-407)
T1 construct: hRpn13/Adrm1, human, full-length protein (Pru and DEUBAD domains); The preparation of the full-length protein is not described; it was not held on Talon resin by itself in the pull-down, so it probably carried no His tag; also called hRpn13 full-length protein; Adrm1; source: purified recombinant protein
T1 sequence (Q16186 whole entry, the tested form may be a part): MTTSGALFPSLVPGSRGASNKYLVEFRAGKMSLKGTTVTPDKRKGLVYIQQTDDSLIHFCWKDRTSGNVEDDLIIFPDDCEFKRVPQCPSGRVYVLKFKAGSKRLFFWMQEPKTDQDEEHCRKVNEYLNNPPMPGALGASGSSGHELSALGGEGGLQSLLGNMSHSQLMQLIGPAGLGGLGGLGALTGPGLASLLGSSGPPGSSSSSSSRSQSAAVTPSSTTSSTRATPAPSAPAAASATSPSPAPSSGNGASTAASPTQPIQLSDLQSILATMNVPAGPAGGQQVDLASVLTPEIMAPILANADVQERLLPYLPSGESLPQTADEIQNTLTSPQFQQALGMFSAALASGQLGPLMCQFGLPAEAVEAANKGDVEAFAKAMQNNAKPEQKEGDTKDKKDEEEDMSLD
test.name: fluorescence polarisation; 10 nM FITC-hRpn2 (940–953) with serially diluted full-length hRpn13; 20 mM sodium phosphate, 50 mM NaCl, pH 6.5; room temperature, 30 min; Hill slope model; also with 100 μM RA190 or 2% DMSO
test.settings: both partners purified
No end group written: not given here. *: point of attachment. FITC‑N3 = fluorescein azide; Pent4ynoyl = C#CCCC(=O)*; AEEA = NCCOCCOCC(=O)O
measured.property: pKd
For clarity, pKd is expressed as the negative log10 of concentration in mol/L.

Documented pKd of {FITC‑N3-Pent4ynoyl-AEEA}-QEPEPPEPFEYIDD (also called FITC-labelled hRpn2 probe; source: synthetic peptide (Fmoc solid-phase synthesis, click coupling to FITC-N3, HPLC purified)) [FITC-hRpn2 (940–953)] : 7.83
